assay: Determination of S from retention time shift Δ relative to P3 at two gradient slopes, nano-RP-HPLC MS of spiked tryptic digest; format: physicochemical; conditions: experimental S, LC-MS runs of model peptide mixture, formic acid
The threshold is inclusive: Slope (experimental) of exactly 30 counts as True; values below receive False.

LAGGGSASSSADAAAFR True
DKDDFFTR False
DNCCILDER False
NCPDKFCLFK False
GDKELLIDNEK True
ARPATATVGQK True
APVDAFK False
GNLDDFFHR False
QGFGNIATNAEGK True
FDEFFSAGCAPGSPR False
GEADALNLDGGYIYTAGK True
HMDGYGSHTFK True
LLCLDGTR False
HSTVFDNLPNPEDR True
KGSNFQLDQLQGR True
NYELLCGDNTR False
KANEGLTWNSLKDK True
AVVQDPALKPLALVYGEATSR True
